Where do the numbers come from? From patent US20190359687A1.

target_of_assay: T1, human glycophorin A on human red blood cells or red blood cell membranes (human, UniProt P02724 20-150)
T1 construct: whole, on cells; also called hRBC; human RBC membranes
T1 sequence (looked up): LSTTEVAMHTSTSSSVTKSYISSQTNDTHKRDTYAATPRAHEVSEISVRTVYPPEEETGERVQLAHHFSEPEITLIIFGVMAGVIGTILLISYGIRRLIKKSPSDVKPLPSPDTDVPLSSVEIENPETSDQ
assay_overview: Fab on intact human RBC, unbound Fab by ELISA; 60 min after 200-fold dilution
Binarize percentage of input antibody bound at 80%; below is YES, at or above is NO.

Worked set:
TPP-7793, affinity matured 6C12 Fab (Fab, V domains shown, Tested as Fab) VH: EVQLVQSGAEVKKPGASVKVSCKASGYTFTRYTIHWVRQAPGQGLEWMGYINPSSGYTRYNPKFKGRVTMTRDKSTSTAYMELRSLRSDDTAVYYCWTGTRDYWGQGTTVTVSS VL: DIQLTQSPSFLSASVGDRVTITCRASSSVSYIYWFQQKPGKAPKLLIYATSTLQSGVPSRFSGSGSGTEYTLTISSLQPEDFATYYCHQRNSFPYTFGQGTKLEIK | NO
TPP-7794, affinity matured 6C12 Fab (Fab, V domains shown, Tested as Fab) VH: EVQLVQSGAEVKKPGASVKVSCKASGYTFTTYAIHWVRQAPGQGLEWMGYINPSSGYTRYNPKFKHRVTMTRDKSTSTAYMELRSLRSDDTAVYYCWTGTRDYWGQGTTVTVSS VL: DIQLTQSPSFLSASVGDRVTITCRASSSVRYIYWFQQKPGKAPKLLIYATSFRQSGVPSRFSGSGSGTEYTLTISSLQPEDFATYYCHQRNSFPYTFGQGTKLEIK | NO
TPP-7778, affinity matured 6C12 Fab (Fab, V domains shown, Tested as Fab) VH: EVQLVQSGAEVKKPGASVKVSCKASGYTFTTYAIHWVRQAPGQGLEWMGYINPSSGYTRYNPKFKHRVTMTRDKSTSTAYMELRSLRSDDTAVYYCQTGTRDYWGQGTTVTVSS VL: DIQLTQSPSFLSASVGDRVTITCRASSSVRYIYWFQQKPGKAPKLLIYATSTLQSGVPSRFSGSGSGTEYTLTISSLQPEDFATYYCHQRNSFPYTFGQGTKLEIK | YES
TPP-7781, affinity matured 6C12 Fab (Fab, V domains shown, Tested as Fab) VH: EVQLVQSGAEVKKPGASVKVSCKASGYTFTTYTIHWVRQAPGQGLEWMGYINPKSGWTRYNPKFKGRVTMTRDKSTSTAYMELRSLRSDDTAVYYCQTGTRDYWGQGTTVTVSS VL: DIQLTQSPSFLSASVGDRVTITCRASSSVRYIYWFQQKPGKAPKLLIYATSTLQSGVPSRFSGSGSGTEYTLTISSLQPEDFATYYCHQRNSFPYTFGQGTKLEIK | YES

Consider now this further binder.
*Q* I'd appreciate it if you could check whether TPP-7792, affinity matured 6C12 Fab (Fab, V domains shown, Tested as Fab with a 6xHIS tag) VH: EVQLVQSGAEVKKPGASVKVSCKASGYTFTTYAIHWVRQAPGQGLEWMGYINPSSGYTRYNPKFKGRVTMTRDKSTSTAYMELRSLRSDDTAVYYCWTGTRDYWGQGTTVTVSS VL: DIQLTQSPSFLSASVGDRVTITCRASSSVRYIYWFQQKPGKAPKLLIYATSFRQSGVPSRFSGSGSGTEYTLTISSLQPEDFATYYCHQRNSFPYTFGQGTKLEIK has percentage of input antibody bound smaller than 80%.
*A* NO
